assay: S. pombe growth modifiers, basal conditions – strain 972, OD600, 24 h, no modulator, primary screen (AID 1090);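 note: basal condition with compound alone and no growth modifier present; test concentration not given here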; details: S. pombe 972 growth, higher = more signal, called active from +8 up or from −8 down
This listing pairs molecules with measured z-score.
Write the value as a bare number.

COC(=O)[C@@]1(Cc2ccc(F)cc2)[C@H]2c3cc(C(=O)N(C)C)n(CCSCCO)c3C[C@H]2CN1C(=O)c1ccccc1
0.642
CCCC=C(CCC)[C@@H](NS(=O)(=O)c1cccc2cccnc12)c1ccc(C(=O)OC)cc1
-0.271
COC(=O)C(CC#Cc1ccc2c(c1)[C@]1(C(=O)N2)[C@H](c2ccc(O)cc2)N2[C@H](c3ccccc3)[C@H](c3ccccc3)OC(=O)[C@H]2[C@@H]1C(N)=O)C(=O)OC
-0.55
COc1ccc(C#Cc2ccc3c(c2)[C@]2(C(=O)N3)[C@H](c3ccc(OCCO)cc3)N3[C@H](c4ccccc4)[C@H](c4ccccc4)OC(=O)[C@H]3[C@@H]2C(=O)N2CCN(c3ncccn3)CC2)cc1
1.23
Cc1ccccc1C(O)C1C=CC2C(=O)N(Cc3ccccc3)C(=O)C2N1n1cnnc1 (stereo unspecified)
0.658

Could you now look at the following molecule, please?
// returns reported z-score for input COCCCNC(=O)[C@]1(CCS(=O)(=O)c2ccccc2)N=C(c2ccc(OCCCO)cc2)O[C@@H]1c1ccccc1
0.127
